I'd be grateful if you could share measured pIC50 for these entries.
- STUDY_SYSTEM: human DGKζ (Homo sapiens (Human))
- Sequence (Q13574 other isoform, or with tags, fused parts or gaps): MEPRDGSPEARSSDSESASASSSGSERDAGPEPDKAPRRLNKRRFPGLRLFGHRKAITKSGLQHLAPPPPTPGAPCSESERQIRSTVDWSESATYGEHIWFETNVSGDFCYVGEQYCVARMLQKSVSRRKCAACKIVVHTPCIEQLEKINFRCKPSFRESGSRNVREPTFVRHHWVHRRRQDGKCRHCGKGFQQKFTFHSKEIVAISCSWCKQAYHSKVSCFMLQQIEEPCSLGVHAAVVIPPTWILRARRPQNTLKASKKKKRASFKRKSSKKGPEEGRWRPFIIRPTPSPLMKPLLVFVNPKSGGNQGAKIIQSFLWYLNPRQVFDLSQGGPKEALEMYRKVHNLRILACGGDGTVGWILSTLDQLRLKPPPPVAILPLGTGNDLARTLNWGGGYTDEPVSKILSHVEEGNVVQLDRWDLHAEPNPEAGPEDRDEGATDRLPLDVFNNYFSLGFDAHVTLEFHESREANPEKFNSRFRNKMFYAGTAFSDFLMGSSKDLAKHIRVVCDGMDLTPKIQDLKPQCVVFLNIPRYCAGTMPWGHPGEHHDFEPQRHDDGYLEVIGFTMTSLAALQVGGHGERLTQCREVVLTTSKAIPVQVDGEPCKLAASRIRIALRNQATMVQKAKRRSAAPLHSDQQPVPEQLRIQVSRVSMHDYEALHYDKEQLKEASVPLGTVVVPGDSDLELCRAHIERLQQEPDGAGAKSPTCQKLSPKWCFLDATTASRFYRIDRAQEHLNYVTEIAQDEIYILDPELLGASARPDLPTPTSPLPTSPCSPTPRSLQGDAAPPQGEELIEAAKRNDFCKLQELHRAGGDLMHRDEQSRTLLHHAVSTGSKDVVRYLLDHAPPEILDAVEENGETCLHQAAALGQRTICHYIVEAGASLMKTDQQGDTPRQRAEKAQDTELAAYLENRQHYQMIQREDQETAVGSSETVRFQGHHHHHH
- ASSAY_METHOD_TEXT: DGKζ LIPGLO assay (extruded liposome substrate)
- Assay type: biochemical
- MEASUREMENT_PARAMETERS: extruded liposome substrate; read-out: DGKζ LIPGLO IC50
# pIC50 = -log10(concentration in molar units)

Prompt: # get_value(readout='pIC50', item= Cn1c(=O)c(C#N)c(N2CCN([C@@H](c3ccccc3)c3ccc(Cl)cc3)CC2)c2nc(Br)ccc21 [Example 428] )
Completion: 5.28

Prompt: # get_value(readout='pIC50', item= Cn1c(=O)c(C#N)c(N2CCN(Cc3ccc(F)cc3O)CC2)c2nc(Cl)ccc21 [Example 193] )
Completion: 5.19

Prompt: # get_value(readout='pIC50', item= COc1cc(F)ccc1C(c1ccc(F)cc1)N1CCN(c2c(C#N)c(=O)n(C)c3ccc(Br)nc23)CC1 (single isomer, unassigned) [Example 16] )
Completion: 4.57

Prompt: # get_value(readout='pIC50', item= C#CCn1c(=O)c([N+](=O)[O-])c(N2CCN(C(c3ccc(F)cc3)c3ccccc3OC)CC2)c2nc(C#N)ccc21 (single isomer, unassigned) [Example 130] )
Completion: 6.51

Prompt: # get_value(readout='pIC50', item= COc1cc(F)ccc1C(c1ccc(F)cc1)N1CCN(c2c(C#N)c(=O)n(C)c3ccc(C#N)nc23)CC1 (single isomer, unassigned) [Example 407] )
Completion: 6.35

Prompt: # get_value(readout='pIC50', item= COc1ccc2c(n1)c(N1CCN(C(c3ncccn3)c3ccc(F)cc3OC)CC1)c(C#N)c(=O)n2C (stereo not shown) [Example 401] )
Completion: 5.12

Prompt: # get_value(readout='pIC50', item= Cn1c(=O)c(C#N)c(N2CCN(Cc3ccccc3Cl)CC2)c2nc(Cl)ccc21 [Example 272] )
Completion: 5.00
